Cited source for all entries: patent US3953501A

Please go through the items and note down their ED50 cisternal compatibility (myelography).
Test system: rats
Test: Cisternal compatibility (injection into suboccipital cisterna)
Type: in vivo
Conditions: 0.008 - 0.200 ml./kg., methylglucamine salts, 200 mg. I/ml., neurological symptoms in 50% of animals, (1) = Iotalamat (H), (2) = compound
Protocol: All substances were tested as methylglucamine salts with 200 mg. I/ml. of solution. The intracerebral compatibility was determined on rats in accordance with Valzelli, Med. Exp. 11: 23-26 (1964). In order to determine the cisternal compatibility, the test compounds were injected in varying doses (0.008 - 0.200 ml./kg.) by means of a Hamilton No. 710 syringe directly into the suboccipital cisterna of rats which were under a slight ether narcosis. […]
Numbers only, in mg. I/kg..

CNC(=O)C(C)NC(=O)c1c(I)c(NC(C)=O)c(I)c(C(=O)O)c1I (racemic); 16.7
CNC(=O)c1c(I)c(NC(C)=O)c(I)c(C(=O)N(C)CC(=O)O)c1I; 11.93
CC(=O)Nc1c(I)c(C(N)=O)c(I)c(C(=O)NCC(=O)O)c1I; 14.42
CNC(=O)C(CO)NC(=O)c1c(I)c(NC(=O)COC)c(I)c(C(=O)O)c1I (racemic); 22.8
CC(=O)Nc1c(I)c(C(=O)O)c(I)c(C(=O)NCC(N)=O)c1I; 11.17

The following compounds each have a reported value; give each one's ED50 cisternal compatibility (myelography).
1. CNC(=O)CNC(=O)c1c(I)c(NC(=O)CO)c(I)c(C(=O)O)c1I
2. CNC(=O)CNC(=O)c1c(I)c(NC(=O)COC)c(I)c(C(=O)O)c1I

Result:
1. 11.8
2. 20.04
